B1: library; a variant is named by its letters at N, in order (parent)
chain: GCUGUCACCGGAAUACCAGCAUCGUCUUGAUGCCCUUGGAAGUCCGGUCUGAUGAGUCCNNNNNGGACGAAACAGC

variants of: B1; test: normalized RNA/DNA level without ligand (relative to sTRSVctl = 100) (log10 (% of sTRSVctl)); higher = less ribozyme self-cleavage, higher mRNA level; conditions: HEK293T, reporter: mCherry (pCS4076), ligand present: no
measureName: normalized RNA/DNA level without ligand (log10)
// no unit, no text: just the number

- mutation: "GCGAU"
  readoutValue: 1.7
- mutation: "ACCAC"
  readoutValue: 2.01
- mutation: "CACUU"
  readoutValue: 1.76
- mutation: "CACUA"
  readoutValue: 1.44
- mutation: "CGCAA"
  readoutValue: 1.49

Request: Quick one: normalized RNA/DNA level without ligand (log10) of UGAUG ?
Response: 1.91

Request: So what's the measured normalized RNA/DNA level without ligand (log10) for this one? UAGAU
Response: 1.82

Request: Suppose we examine the variant UCACU ; what normalized RNA/DNA level without ligand (log10) value has been reported?
Response: 1.85

Request: For ACCGA , what is its reported normalized RNA/DNA level without ligand (log10)?
Response: 1.77

Request: normalized RNA/DNA level without ligand (log10) for UAUGG ?
Response: 1.86

Request: If you can, please state the reported normalized RNA/DNA level without ligand (log10) value of UCUGA .
Response: 1.89

Where do these numbers come from? They come from the supplement of paper PMC6757056.
